System: CAKI-1 renal
measurement.notes: NCI-60 one-dose screen, 48 h (100 = growth as untreated, 0 = no growth, -100 = all killed)
experimental.setup: 10 µM
Compounds without any hit were thinned out: in the full panel of roughly 83,000, 20% have a hit.
measured.metric: growth (%)
Answers are plain numbers, in %.

Study these solved cases before continuing.
- molecule: "CCN(CC)CCCC(C)NCC(=O)NC(c1ccc2c(c1)OCO2)c1cc(Cl)c2cccnc2c1O (centres undefined)"
  growth, %: 1.43
- molecule: "CNC(=O)c1cc(Oc2ccc3nc(NC(=O)c4cccc(C(F)(F)F)c4)sc3c2)ccn1"
  growth, %: 93.6
- molecule: "CCN1C(=O)N(CC)C2SC(N/N=C/c3ccc(F)cc3)=NC21 (centres undefined)"
  growth, %: 31.7
- molecule: "O=C1NC(=O)/C(=C/c2ccc(OCc3cc4ccccc4nc3Cl)cc2)S1"
  growth, %: 97.1
- molecule: "O=S(=O)(Nc1ccc(I)c(Cl)c1)c1ccc(-c2cnc(C3CC3)o2)cc1"
  growth, %: 6.99

Hi team, please reply with growth for each item in this list.
1. IP(CCCCCCCCCCSc1n(Cc2ccc3ccccc3c2)c(-c2ccccc2)c(-c2ccccc2)[n+]1Cc1ccc2ccccc2c1)(c1ccccc1)(c1ccccc1)c1ccccc1
2. O=C(Nc1cccc(Cl)c1)Nc1nc2ccc([N+](=O)[O-])cc2s1

1. -91.4
2. 3.38

Hi team, please reply with growth for each item in this list.
1. N/C(=N\OC(=O)CSc1nc2ccccc2s1)c1ccc(Cl)cc1
2. CCN1C/C(=N\S(=O)(=O)c2ccccc2)N(CC)C1=S

83.4
95.3

###

Tested on: OVCAR-4 ovarian
measurement.notes: NCI-60 one-dose screen, 48 h
experimental.setup: 10 µM unless noted
This is part of a sample that, as a whole, favours compounds with a hit. Of some 83,000 tested, about 20% had one in any assay. The source made the active and inactive calls. Rule for the calls: active = growth percent below 10; inactive = the rest.
Classes to choose from: active, inactive

Use the examples below as a reference point.
- compound: "Nc1n[nH]c2cccc(C#Cc3cccc(NC(=O)c4cccc(OC(F)(F)F)c4)c3)c12"
  target.or.system: "OVCAR-4 ovarian"
  assigned.category: "inactive"
- compound: "CCc1ccc(NC(=O)N[C@@H](Cc2cc(F)cc(F)c2)C(=O)N[C@@H]2C(=O)N3CCC[C@H]3C(=O)N3CCO[C@H](C)[C@H]3C(=O)N[C@@H](CO)C(=O)N3C[C@H](C)C[C@H]3C(=O)O[C@H]2C)c(F)c1"
  target.or.system: "OVCAR-4 ovarian"
  assigned.category: "inactive"

Outcome? CC1OC(O[C@@H]2[C@H](O)C(CO)OC(O[C@H]3COC(O[C@H]4CC[C@]5(C)[C@H]6CC[C@]78OC[C@@]9(CC[C@](C)(C=O)C[C@H]97)C(=O)C[C@@]8(C)[C@]6(C)CC[C@H]5C4(C)C)[C@@H](O)[C@@H]3O)[C@H]2OC2OC[C@@H](O)[C@@H](O)[C@@H]2O)[C@@H](O)[C@@H](O)[C@H]1O (stereo not given in full)
inactive

Outcome? C/C(=N\NC(=O)CSc1nc2sc3c(c2c(=O)n1-c1ccccc1)CCC(C)C3)c1ccc(Cl)cc1 (stereo not given)
inactive

Outcome? `COc1ccccc1/C=C/C(=O)c1nnn(-c2ccc(C(=O)O)cc2)c1C`
inactive
